- targetSystem: Tumor necrosis factor receptor superfamily member 10B (Homo sapiens)
- experimentalProtocol: caspase-8 TRAIL sensitization, hit retest, confirmation, cell-based, NB7+caspase-8, with/without TRAIL, luminescence panel (AID 651596)
- testConditions: NB7 neuroblastoma + caspase-8, TRAIL sensitization, luminescence viability, with TRAIL, mean of runs, at 10 µM, stronger effect = higher value
With a cut-off of 70%, any activity strictly below it is called Yes; any activity meeting it or above is called No.

A selection of reference data follows.
>>> assignedlabel("CN1CC(=O)N2C(c3ccc(Cl)cc3)c3[nH]c4ccccc4c3C[C@H]2C1=O (some centres undefined)")
"No"
>>> assignedlabel("COc1cc(NCCCCC(C)N)c2nccc(C)c2c1 (centres undefined)")
"Yes"
>>> assignedlabel("CCOC(=O)/C(=C\\c1ccc([N+](=O)[O-])cc1)C(=O)c1cc(C(C)=O)c(Nc2ccccc2)s1")
"No"
>>> assignedlabel("O=C(Nc1nnc(-c2ccccc2)o1)NC1CCCCC1")
"Yes"
>>> assignedlabel("O=C(Nc1ccccn1)c1ccc2c(c1)OCCO2")
"Yes"
>>> assignedlabel("COc1ccc(-c2nc3ccccc3[nH]2)cc1")
"No"

Query string: Please determine if Fc1cccc(CSc2nc3ccncc3[nH]2)c1 is below 70% in terms of activity.
Result string: Yes

Query string: I wonder whether Nc1nccc(-c2cc(-c3ccc(Cl)cc3Cl)no2)n1 has activity below 70%. Can you tell?
Result string: Yes

----------
- targetSystem: PEG-3 (UniProt Q6IN02)
- Sequence (Q6IN02 whole entry, looked up): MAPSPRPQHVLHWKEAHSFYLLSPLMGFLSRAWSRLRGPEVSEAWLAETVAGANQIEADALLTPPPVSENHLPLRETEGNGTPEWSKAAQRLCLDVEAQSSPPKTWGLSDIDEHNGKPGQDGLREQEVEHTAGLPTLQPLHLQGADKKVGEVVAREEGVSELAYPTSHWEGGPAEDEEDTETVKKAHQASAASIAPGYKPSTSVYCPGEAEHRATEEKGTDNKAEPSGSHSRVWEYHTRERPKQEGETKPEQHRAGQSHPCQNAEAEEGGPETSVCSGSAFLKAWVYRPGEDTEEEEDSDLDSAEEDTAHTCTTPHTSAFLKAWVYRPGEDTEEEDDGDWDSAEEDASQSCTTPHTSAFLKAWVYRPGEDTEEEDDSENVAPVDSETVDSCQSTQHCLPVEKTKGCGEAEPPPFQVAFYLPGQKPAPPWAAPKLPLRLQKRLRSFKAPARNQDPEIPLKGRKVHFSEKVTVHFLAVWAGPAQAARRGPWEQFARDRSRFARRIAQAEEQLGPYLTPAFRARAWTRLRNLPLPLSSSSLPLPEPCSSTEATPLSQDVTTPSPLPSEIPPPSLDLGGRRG
- experimentalProtocol: Peg3 promoter luciferase inhibitors, potency, dose response, cell-based, HeLa, CREF/GAPDH counter-screen panel (AID 624167)
- testConditions: CREF/GAPDH counter-screens; HeLa PEG-Prom luciferase reporter, overnight, run 2, dose range 1, at 100 µM (top of the series) unless noted
observedProperty: inhibition (%)
Give a bare numeral; the unit % is implied.

// known answers, use as guide
>>> valueobserved("CCOc1cc(/C=N/N=C(N)N)ccc1OCc1ccc(Cl)cc1")
98.5
>>> valueobserved("c1ccc(CN2CCC(Nc3nc(-c4cccnc4)nc4ccccc34)CC2)cc1")
94.1
>>> valueobserved("COC(=O)c1cn(NC(=O)c2cc([N+](=O)[O-])ccc2F)c(=O)c2ccccc12")
94

Query string: Dear colleague, I am looking for the recorded inhibition of the following molecule: O=C(c1ccoc1)N1CCN(c2cc(-c3ccccc3)nc3cc(-c4ccccc4)nn23)CC1
Result string: 66

Query string: Item under review: CN(C)S(=O)(=O)c1cccc(NC(=O)CSc2cccc3cccnc23)c1 . Reported inhibition?
Result string: 101

Query string: Given the entry COc1cc(NS(C)(=O)=O)ccc1Nc1c2ccccc2nc2ccccc12 , report its measured inhibition.
Result string: 99.2

Query string: Which inhibition is reported for this molecule? CCCC(=O)NC(c1ccc(OC)cc1)c1ccc2cccnc2c1O (centres undefined)
Result string: 88.5

Query string: # query: inhibition of entry CCc1ccc(NC(=O)CSc2nc3ccccc3c(=O)n2CCCN2CCC(C)CC2)cc1
Result string: 101

Query string: Query (molecule): OC1(c2ccc(Cl)c(Cl)c2)C[n+]2ccccc2N1Cc1ccccc1 (centres undefined) ; field requested: inhibition
Result string: 101

Query string: Endpoint output: inhibition of CN1CCC(N(C)S(=O)(=O)c2ccc(NC(=O)COc3ccc(Br)cc3Cl)cc2)CC1 . Value?
Result string: 101

Query string: Reported inhibition, molecule O=C(N/N=C\c1c(O)ccc2ccccc12)c1ccc(Cn2cccn2)o1 : ____
Result string: 75.1

Query string: Field request: inhibition | item: CN(C)c1ccc(/C=N/NC(=O)c2nnn(-c3nonc3N)c2COc2ccc(F)cc2)cc1
Result string: -13.2

----------
- Tested on: Rat fibroblasts (CREF)
- experimentalProtocol: Peg3 promoter luciferase inhibitors, potency, dose response, cell-based, HeLa, CREF/GAPDH counter-screen panel (AID 624167)
- testConditions: CREF/GAPDH counter-screens; run 2, dose range 1, at 100 µM (top of the series)
Decide using inhibition: a value greater than or equal to 70% is Criterion met, a smaller one is Criterion not met.

Worked set:
>>> assignedlabel("Cc1cc(C(=O)COC(=O)c2ccccc2O)c(C)n1Cc1cccs1")
"Criterion met"
>>> assignedlabel("Cc1cc(C)c2nc(NNC(=O)c3ccc(S(=O)(=O)N4CC(C)CC(C)C4)cc3)sc2c1 (stereo unspecified)")
"Criterion met"

Query string: Record O=C(Nc1nc2cc3c(cc2s1)OCO3)C1=COCCO1 ; criterion: inhibition no lower than 70%. Met?
Result string: Criterion met

Query string: In plain terms: is recorded inhibition at least 70% for O=C(N/N=C/c1c(O)ccc2ccccc12)c1ccc(CO)nc1 ?
Result string: Criterion not met

Query string: In plain terms: is recorded inhibition at least 70% for CN(C)CC1CCC/C(=C\c2ccc(OC(=O)c3ccc(Cl)cc3)cc2)C1=O (stereo unspecified) ?
Result string: Criterion not met

----------
- experimentalProtocol: luciferase luminescence interference by compounds, confirmation, artefact control for SENP inhibitor project, biochemical, single concentration, SENP8 reaction pre-completed (AID 488919);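 note: plate controls were DMSO wells with completed reaction for no effect and substrate without enzyme for full effect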
- testConditions: Pre-incubated SENP8/Z-RLRGG-aminoluciferin, at 12.5 µM
This is one part of the list. Activity calls are given as the source filed them.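 How the source made its calls: active means mean inhibition above about 50% when retested at one dose (limit read from the data); inactive means the rest.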
Write down the outcome that applies. Available outcomes: class 1 (active), class 0 (inactive)

Query string: Write down the call the test reported for this compound. Item: Cc1ccc(O)c(NC(=O)c2cc(-c3ccco3)on2)c1
Result string: class 0

Query string: How was O=C(Nc1ncc([N+](=O)[O-])s1)C1COc2ccccc2O1 (stereo not given) classified in this test?
Result string: class 0

Query string: Each compound tested received a call. Report the one for Oc1ccc(Br)cc1C=Nc1ccc2[nH]ncc2c1 .
Result string: class 0

Query string: Assay outcome for Cc1ccc(/C=N/NC(=O)c2cc3ccccc3cc2O)o1 : what was it?
Result string: class 1

Query string: Hi, sorry to bother you, what did the test record for O=[N+]([O-])c1ccc2nc(-c3ccccn3)[nH]c2c1 ?
Result string: class 0

----------
- experimentalProtocol: TRAIL sensitizers in caspase-8 expressing neuroblastoma cells, dose response, NB7 cells plus caspase-8, luminescence, panel (AID 652002)
- testConditions: NB7 neuroblastoma +caspase-8, no TRAIL, compound-alone cytotoxicity counter-screen, luminescence viability, NB7+Caspase-8, run 1; at 12.5 µM (top of the series) unless noted
Readings of activity, % sensitization for the listed molecules
Just the number plus its unit, please.

Guide cases for activity, % sensitization, answers given:
>>> valueobserved("COc1cc(NC(=O)c2[nH]cnc2C(N)=O)cc(C(=O)Nc2cccc(C(F)(F)F)c2)c1")
"5.71%"
>>> valueobserved("CN(C)CCCN(C(=O)c1ccc(C(=O)c2ccccc2)cc1)c1nc2ccc(F)cc2s1")
"0.995%"

# ---- query molecule ----
Query string: Endpoint output: activity, % sensitization of COc1ccc(/C=N/Nc2nc3ccccc3c(=O)n2-c2ccccc2)cc1OC . Value?
Result string: 41%

----------
- experimentalProtocol: inhibitors of PAF-induced NFkB signaling in CF airway cells, dose response, cell-based, uHTS hits, panel, cytotoxicity readout (AID 624344)
- testConditions: CF bronchial epithelial cells, PAF-induced NFkB reporter inhibition, with PAF, run 1; at 79 µM (top of the series) unless noted
observedProperty: inhibition (%)
Answer in %, number only, no unit symbol.

Here is how some molecules turned out for inhibition.
>>> valueobserved("O=S(=O)(Nc1cccc2cccnc12)c1ccccc1")
102
>>> valueobserved("CCOC(=O)c1c(-c2ccc(C)cc2)csc1NC(=O)c1ccc(N2C(=O)CCC2=O)cc1")
30.1
>>> valueobserved("CC(C)C[C@@H]1NC(=O)[C@H](Cc2ccccc2)N(C)C(=O)[C@H](C)NC(=O)c2ccccc2NC(=O)[C@H](Cc2ccc(O)cc2)N(C)C1=O")
102
>>> valueobserved("C=CCSc1nsc(NC(=O)Nc2cccc(C(C)=O)c2)n1")
109
>>> valueobserved("O=C(c1cc([N+](=O)[O-])ccc1N1CCOCC1)N1CCN(c2ccccc2)CC1")
116
>>> valueobserved("Cc1ccc(CNc2ncnc(N)c2[N+](=O)[O-])cc1")
87.7

Kindly consider the entry below.
Query string: Quick check: inhibition of CCC1=C(CC2NCCc3ccccc32)CC2c3cc(OC)c(OC)cc3CCN2C1 (stereo unspecified) ?
Result string: 115

----------
- experimentalProtocol: HIF-2a reporter inhibitor retest, confirmation, luminescence, 786-0 RCC cells (AID 651580)
- testConditions: HIF-2a luciferase reporter luminescence, overnight, at 18.8 µM, stronger effect = higher value
The list shows a part of the results.
observedProperty: inhibition (%)
Give the quantity in %, number only.

>>> valueobserved("CN1OC[C@@H]2CN(S(=O)(=O)c3cccc(C(F)(F)F)c3)[C@H](c3ccc(-c4cc5ccccc5o4)cc3)C[C@@H]21")
46.4

Query string: Item under review: Cc1ccc(N(Cc2cc(=O)[nH]c3ccccc23)C(=O)CCl)cc1 . Reported inhibition?
Result string: 76.7

Query string: Recorded inhibition for O=C(Nc1ccccc1)c1nnsc1S(=O)(=O)c1ccc(Cl)cc1 , please?
Result string: 47.1

Query string: I would be grateful if you could share the reported inhibition for CCCc1[nH]nc2c1C(C1CC=CCC1)C(C#N)=C(N)O2 (stereo not given) .
Result string: 8.58

Query string: Consider the compound COc1ccccc1-n1nnnc1S(=O)(=O)Cc1ccc(Cl)cc1 and give its measured inhibition.
Result string: 70.5
